- testDescription: chemical genetic growth profiling, strain panel (AID 1159580);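 also: tested at 20 µM; growth read once vehicle control cultures reached saturation at 30 °C; 1 = growth at the plate median or of vehicle wells; lower values mean less growth of the strain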
- measurementParameters: S. cerevisiae deletion strains, growth OD, locus YCR088W, strain abp1, active compounds read low
Among all 5,500 compounds or so, about 2,000 (36%) were called active. About 18% were inconclusive and are not listed. The list shows a part of the results.
parameter: normalized growth
When you answer, write just the number.

Known normalized growth results, listed for orientation:
>>> df
                                   molecule  reading
0          O=c1[nH]c2cc(Cl)c(Cl)cc2[nH]c1=O    0.997
1         O=C(O)c1nc2cc(Cl)c(Cl)cc2[nH]c1=O     1.01
2                      CC(=O)O.CC(=O)O.[Cd]    0.654
3  C/C(=C\C(=O)OCCCCCCCCC(=O)O)C[C@@H]1OC[C@H](C[C@@H]2O[C@H]2[C@@H](C)[C@H](C)O)[C@@H](O)[C@H]1O    0.952

Ask: Name the recorded normalized growth of the molecule listed here: `O=c1c(-c2ccccc2)coc2cc(O)cc(O)c12`
Result: 1.01

Ask: Specify reported normalized growth for the molecule shown: `COc1ccc(-c2coc3cc(OC(C)=O)cc(OC(C)=O)c3c2=O)cc1`
Result: 0.968

Ask: Supply reported normalized growth belonging to this molecule: CC[C@]12C=CCN3CC[C@@]4(c5ccc(OC)cc5N(C)C4[C@@](O)(C(=O)OC)[C@@H]1OC(C)=O)[C@@H]32 (stereo not given in full)
Result: 1

Ask: Let me know recorded normalized growth for `COc1cc2c(cc1OC)-c1cc3ccc(OC)c(OC)c3c[n+]1CC2` , thanks.
Result: 0.98

Ask: Determine its reported normalized growth: `COc1c2c(cc3c1OCO3)CC[N+](C)=C2`
Result: 1

Ask: Dear colleague, please send me the reported normalized growth for `C[n+]1cc2c3c(ccc2c2ccc4cc5c(cc4c21)OCO5)OCO3` when you can.
Result: 0.802

---

- testDescription: chemical genetic growth profiling, strain panel (AID 1159580);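 also: tested at 20 µM; growth read once vehicle control cultures reached saturation at 30 °C; 1 = growth at the plate median or of vehicle wells; lower values mean less growth of the strain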
- measurementParameters: S. cerevisiae deletion strains, growth OD, locus YDL134C, strain PPH21, active compounds read low
The whole screen tested about 5,500 compounds, of which about 2,000 (36%) were called active. About 18% were inconclusive and are not listed. Some of the results follow.
parameter: normalized growth
Write the number on its own, no unit after it.

>>> df
                     compound  reading
0  O=C(O)/C=C(\CC(=O)O)C(=O)O     1.01

Ask: Supply measured normalized growth of C=CCCCCCCCCCCCC(O)CC(O)CO (stereo not given) in your reply.
Result: 0.951

Ask: Please indicate normalized growth recorded for CC1NC(=O)NC1=O (stereo not given)
Result: 1.01

Ask: Identify the reported normalized growth for the following entry. OC1C(O)C(O)C(O)C(O)C1O (stereo not given)
Result: 0.99

Ask: Tell us which normalized growth value is on record for `CCCCCCCCCCCCCCCC[n+]1ccccc1`
Result: 0.0538

---

- testDescription: chemical genetic growth profiling, strain panel (AID 1159580);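 also: tested at 20 µM; growth read once vehicle control cultures reached saturation at 30 °C; 1 = growth at the plate median or of vehicle wells; lower values mean less growth of the strain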
- measurementParameters: S. cerevisiae deletion strains, growth OD, locus YLR113W, strain HOG1
About 2,000 (36%) of roughly 5,500 compounds were called active. Inconclusive results (about 18%) are left out. Rule as the data show it: active = normalized growth mostly below about 0.91 (no sharp cut-off); inconclusive = no clear call, values can overlap the other calls; inactive = mostly above about 0.92. This is one part of the list.
Please answer using one outcome listed in active, inactive

Reference set (5 entries):
>>> print(df.to_string())
                                   molecule  qualitativelabel
0           COc1ccc(-c2cc(=O)c3ccccc3o2)cc1          inactive
1                   NC(=O)CC[C@@H](N)C(=O)O          inactive
2  Cc1ccc(C(=O)O/N=C(/N)CSc2ncccc2C(F)(F)F)cc1            active
3           N#CCC(=O)c1cccc(CSc2ccccc2Cl)c1            active
4  COc1cc2c(cc1OC)-c1cc3ccc(OC)c(OC)c3c[n+]1CC2          inactive

Ask: Would you mind telling me which call this test gave `C[n+]1cc2c3c(ccc2c2ccc4cc5c(cc4c21)OCO5)OCO3` ?
Result: inactive

Ask: Record request — test call for CCN(CCCCOC(=O)c1ccc(OC)c(OC)c1)C(C)Cc1ccc(OC)cc1 (stereo unspecified)
Result: inactive

Ask: Name the outcome recorded for `CCCN1C[C@H](CSC)C[C@@H]2c3cccc4[nH]cc(c34)C[C@H]21` in the assay.
Result: inactive

Ask: Fill in: this test's call for CCC(C)COC(=O)/C=C/c1ccc(N=Cc2ccc(OC)cc2)cc1 (stereo unspecified) is ___
Result: active

Ask: Answer briefly: the call reported for `C/C(=C\C(=O)OCCCCCCCCC(=O)O)C[C@@H]1OC[C@H](C[C@@H]2O[C@H]2[C@@H](C)[C@H](C)O)[C@@H](O)[C@H]1O` in this assay.
Result: active

Ask: What did the test return for C=CCc1ccccc1OCC(O)CNC(C)C (stereo unspecified) ?
Result: inactive
